# Tested on: HepaRG
# Procedure Details: LDH release cytotoxicity, % of total lysis control; higher = more cytotoxic
# Experimental Parameters: 31.6228 µM; 48 h
Give measured LDH release cytotoxicity for each item. Keep answers brief.
Answers are plain numbers, in %.

In the examples that follow, each entry is paired with its recorded LDH release cytotoxicity.
1) Cc1[nH]nc2c1N=C(c1ccccc1Cl)c1cc([N+](=O)[O-])ccc1N2; 7.8
2) CC1(C)C(=O)N(Cl)C(=O)N1Cl; 1.54
3) CCCCCOC(=O)c1ccccc1C(=O)OCCCCC [Dipentyl phthalate]; 47.6
4) c1ccc(NNc2ccccc2)cc1 [1,2-Diphenylhydrazine]; -1.72
5) Nc1ccc(Cl)cc1N; -0.208
6) N#CC(Br)Br; -2.1
7) O=C(O)c1nc(Cl)ccc1Cl; -1.18
8) CCC(C)C(=O)OC1CC(O)C=C2C=CC(C)C(CCC(O)CC(O)CC(=O)O)C21 (stereo unspecified) [Pravastatin sodium]; 0.155

For every record below, what is its LDH release cytotoxicity?
1. CN(C)C(=S)[S-].CN(C)C(=S)[S-].[Zn+2]
2. CCCCc1nc2cccnc2n1Cc1ccc(-c2ccccc2-c2nnn[nH]2)cc1
3. CC(C)CCCCCCCOC(=O)CCCCC(=O)OCCCCCCCC(C)C [Diisodecyl hexanedioate]
4. Nc1c(Cl)cc([N+](=O)[O-])cc1Cl
5. CC(Cl)(Cl)C(=O)O
6. CC(C)Nc1nc(Cl)nc(NC(C)C)n1
7. c1ccc2cc3ccccc3cc2c1

1: 37.6; 2: -0.609; 3: -0.135; 4: -0.997; 5: 1.01; 6: -0.397; 7: -1.53

For every record below, what is its LDH release cytotoxicity?
1. CCCCN(CC)c1c([N+](=O)[O-])cc(C(F)(F)F)cc1[N+](=O)[O-]
2. CN(C)c1ccc(C(=O)c2ccc(N(C)C)cc2)cc1
3. CC(C)C(=O)Nc1ccc([N+](=O)[O-])c(C(F)(F)F)c1 [Flutamide]
4. N#Cc1c[nH]cc1-c1cccc2c1OC(F)(F)O2
5. c1ccc(C2CO2)cc1 (stereo unspecified) [Styrene oxide]

[-1.14, 7.06, 2.14, 3.74, -0.175]

For every record below, what is its LDH release cytotoxicity?
1. C#CCN1C(=O)COc2cc(F)c(N3C(=O)C4=C(CCCC4)C3=O)cc21
2. CCCCCCCCOC(=O)c1cc(O)c(O)c(O)c1 [Octyl gallate]
3. CC1=C(C)S(=O)(=O)CCS1(=O)=O
4. CC1(C)C(=O)NC(=O)N1CO [1-(Hydroxymethyl)-5,5-dimethylhydantoin]
5. c1ccc2c(c1)-c1cccc3c1c-2cc1ccccc13
6. O=C(O)C1(c2ccc3c(c2)OCC(Cc2ccc(-c4ccccc4)cc2)C3O)CCCC1 (stereo unspecified)

1. -0.837
2. -1.86
3. -2.51
4. -0.999
5. 5.33
6. 2.92

For every record below, what is its LDH release cytotoxicity?
1. OCCN(CCO)CCO
2. CCC(C)(C)C(=O)OC1=C(c2ccc(Cl)cc2Cl)C(=O)OC12CCCCC2

[-0.346, -1.05]

* * *

# Tested on: HepaRG
# Procedure Details: LDH release cytotoxicity, % of total lysis control; higher = more cytotoxic
# Experimental Parameters: 1 µM; 48 h
Structures can show the parent of a compound that is named as a salt.
Assay Readout: LDH release cytotoxicity (%)
Give bare numbers, in %.

In the examples that follow, each entry is paired with its recorded LDH release cytotoxicity.
1) c1ccc2occc2c1; -0.181
2) CCCCCCCCCCO; -2.76
3) CCc1cc(C2=C(C(=O)O)N(c3ccccc3C(F)(F)F)S(=O)(=O)c3ccccc32)cc2c1OCO2 [Fandosentan potassium salt]; -0.769
4) CCCCCCC(C=O)=Cc1ccccc1; -1.91

Next item in the queue.
Which LDH release cytotoxicity value is on record for `CCCCCCCCCc1ccc(O)cc1` ? -1.65

The reported measurements were obtained from the supplement of paper PMC7840683.
